The following binders are listed with their measured optical density values.
- system: human Fc (human)
- assay_overview: ELISA; negative control
// return numeric value only (unit: OD, not printed)

376_G09 (antibody, V domains shown) VH: EVQLLESGGGLVQPGGSLRLSCAASGFTFDSYSMNWVRQAPGKGLEWVSGINYNSGYKGYADSVKGRFTISRDNSKNTLYLQMNSLRAEDTAVYYCARSANWHDTALDYWGQGTLVTVSS VL: DIQMTQSPSSLSASVGDRVTITCRASQSISYYLNWYQQKPGKAPKLLIYAVTSRASGVPSRFSGSGSGTDFTLTISSLQPEDFATYYCQQSYDNPLTFGGGTKVEIK: 0.23
376_B11 (antibody, V domains shown) VH: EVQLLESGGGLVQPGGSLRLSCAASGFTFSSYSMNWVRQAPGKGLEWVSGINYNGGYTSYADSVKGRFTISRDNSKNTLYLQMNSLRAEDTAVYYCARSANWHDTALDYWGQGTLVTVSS VL: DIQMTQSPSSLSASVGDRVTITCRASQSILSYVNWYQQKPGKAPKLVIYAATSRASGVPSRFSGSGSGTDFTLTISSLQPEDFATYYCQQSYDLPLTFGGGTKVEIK: 0.261

Turning now to a further binder:
**Q:** Find the recorded optical density belonging to 374_E02 (antibody, V domains shown) VH: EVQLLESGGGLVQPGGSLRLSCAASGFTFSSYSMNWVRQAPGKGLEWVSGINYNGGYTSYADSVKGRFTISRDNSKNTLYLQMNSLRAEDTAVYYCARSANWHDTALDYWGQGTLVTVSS VL: DIQMTQSPSSLSASVGDRVTITCRASQSILSYLNWYQQKPGKAPKLLIYAATSLASGVPSRFSGSGSGTDFTLTISSLQPEDFATYYCQQSYDLPLTFGGGTKVEIK and report it.
**A:** 0.527
